Target: T1, GFP-9S library array, motif 4 ND D124G (synthetic construct, D124G)
T1 chain: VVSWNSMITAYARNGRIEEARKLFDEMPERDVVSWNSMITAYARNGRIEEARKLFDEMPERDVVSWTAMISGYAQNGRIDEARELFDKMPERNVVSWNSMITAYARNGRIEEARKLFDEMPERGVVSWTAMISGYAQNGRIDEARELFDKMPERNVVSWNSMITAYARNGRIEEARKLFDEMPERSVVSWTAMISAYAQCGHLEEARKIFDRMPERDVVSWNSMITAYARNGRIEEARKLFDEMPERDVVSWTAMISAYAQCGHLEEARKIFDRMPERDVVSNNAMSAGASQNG
Test: high-throughput RNA pulldown from lysate on Ni-NTA beads; HRP: 50 mM Tris pH 8, 150 mM NaCl, 1 mM beta-mercaptoethanol, 50 ug/ml BSA, 3 ug/ml yeast RNA, 0.5% heparin; ITC and FP: Tris pH 8, 200 mM KCl, 5% glycerol; MST: 50 mM Tris pH 8, 200 mM NaCl, 1 mM DTT, BSA, heparin, 0.05% Tween 20
Settings: tags: N-terminal His-eGFP; label: 5' IRDye 800CW
measured attribute: pKd
Please note pKd is a logarithmic value: minus log10 of concentration in mol/L. Answer with that number alone.

Query block: Which pKd is listed for AUUAUACGUGA (ssRNA) [IR-rpoA-U] ?
Result block: 7.51

Query block: Could you do the same for AUUAAACGUGA (ssRNA) [IR-rpoA-A] , please?
Result block: 6.87
